Below, each entry is listed with its recorded Cooling threshold.
Test system: trained panelists
Experiment: Cooling threshold in water, triangle test by trained panelists
Assay type: in vivo, human
Details: determined in water

Check out these entries, answers already filled in.
>>> observed_result("CC1=C(N2CCCC2)C(=O)C(C)C1 (stereo not shown)")
"33 to 54 mg/kg"
>>> observed_result("CC1=C(N2CCCC2)C(=O)CCC1")
"90 to 150 mg/kg"
>>> observed_result("CC1CCC(C(C)C)C(O)C1 (single isomer, unassigned; (-)) [(−)-Menthol, reference compound]")
"0.9 to 1.9 mg/kg"
>>> observed_result("CC1=C(N2CCCC2C(=O)O)C(=O)CC1 (stereo not shown)")
"490 to 735 mg/kg"
>>> observed_result("CC1=C(N2CCCC2)C(=O)CC1")
"29 to 44 mg/kg"

The compound COC(=O)C1CCCN1C1=CCC(C)C1=O (stereo not shown) showed Cooling threshold equal to 112 to 188 mg/kg

The compound CC1C=C(N2CCCC2)C(=O)C1C (stereo not shown) showed Cooling threshold equal to 68 to 113 mg/kg
